Data origin: patent US9266859B2

# target-system: PDE4B (Homo sapiens)
# Construct: made in house; host or cells: Saccharomyces cerevisiae lacking endogenous PDEs
# Sequence (Q07343 whole entry): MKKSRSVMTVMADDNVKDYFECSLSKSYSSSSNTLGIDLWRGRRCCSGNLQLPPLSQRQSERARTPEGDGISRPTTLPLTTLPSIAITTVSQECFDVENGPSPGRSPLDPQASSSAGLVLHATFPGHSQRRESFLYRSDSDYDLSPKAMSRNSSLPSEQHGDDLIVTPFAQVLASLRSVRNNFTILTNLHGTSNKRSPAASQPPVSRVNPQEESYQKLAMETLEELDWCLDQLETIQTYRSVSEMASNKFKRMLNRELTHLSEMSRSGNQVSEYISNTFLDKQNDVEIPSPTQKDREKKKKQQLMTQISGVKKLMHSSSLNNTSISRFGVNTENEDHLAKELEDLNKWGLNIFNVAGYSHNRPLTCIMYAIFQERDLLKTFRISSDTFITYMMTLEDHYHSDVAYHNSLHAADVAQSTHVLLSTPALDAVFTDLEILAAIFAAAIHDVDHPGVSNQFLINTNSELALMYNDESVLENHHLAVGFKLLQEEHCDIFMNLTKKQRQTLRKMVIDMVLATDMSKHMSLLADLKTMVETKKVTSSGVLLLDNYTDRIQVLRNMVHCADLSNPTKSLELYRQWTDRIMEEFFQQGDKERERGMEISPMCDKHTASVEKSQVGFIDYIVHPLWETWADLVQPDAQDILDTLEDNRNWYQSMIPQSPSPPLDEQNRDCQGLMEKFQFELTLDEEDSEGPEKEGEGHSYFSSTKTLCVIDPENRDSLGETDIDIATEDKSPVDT
# procedure-text: PDE4 Inhibition In Vitro Assay
# Assay type: biochemical
# recorded-conditions: human recombinant PDE4B
recorded-endpoint: IC50

Short answer for COc1ccc([C@@H]2CN(C(=O)[C@@H](O)CO)C[C@@]2(C)[C@@H](C)O)cc1OC1CN(c2ccccn2)C1 : IC50 was < 10 nM
